Origin of the recorded values: paper PMC9154793

assay-details: Metabolic stability in human liver microsomes
Type: in vitro ADME
condition-parameters: male, human, microsomes
recorded-metric: remaining at 20 min, 0.49 µM (%)
Provide only the numeric value, understood in %.

Asked: Supply remaining at 20 min, 0.49 µM value. Item: CCOc1ccc2ccc(=O)oc2c1 [Compound 7-EC, 7-ethoxycoumarin, reference compound]
Given back: 11.5

Asked: Supply remaining at 20 min, 0.49 µM value. Item: Cc1c(C#N)cccc1-c1cc(-c2cn(Cc3cccc(C(N)=O)n3)nn2)nc(N)n1
Given back: 108

Asked: Supply remaining at 20 min, 0.49 µM value. Item: Cc1c(C#N)cccc1-c1cc(-c2cn(Cc3cccc(C#N)n3)nn2)nc(N)n1
Given back: 96.5

Then there is this compound:
Asked: Supply remaining at 20 min, 0.49 µM value. Item: Cc1c(C#N)cccc1-c1cc(-c2cn(Cc3cccc(C(C)(C)O)n3)nn2)nc(N)n1 [AB928, reference compound]
Given back: 104

---

experimental-system: human A2B AR (Homo sapiens, UniProt P29275)
Sequence (P29275 whole entry): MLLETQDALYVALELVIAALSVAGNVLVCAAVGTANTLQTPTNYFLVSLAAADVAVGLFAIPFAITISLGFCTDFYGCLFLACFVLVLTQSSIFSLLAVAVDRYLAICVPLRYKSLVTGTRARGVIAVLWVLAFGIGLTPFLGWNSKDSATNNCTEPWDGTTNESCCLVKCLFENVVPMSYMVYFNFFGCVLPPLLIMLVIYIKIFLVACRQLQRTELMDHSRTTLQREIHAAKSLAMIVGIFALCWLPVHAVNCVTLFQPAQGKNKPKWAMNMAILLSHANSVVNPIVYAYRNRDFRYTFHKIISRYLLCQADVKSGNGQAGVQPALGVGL
assay-details: cAMP functional assay in CHO-K1/ADORA2b/Gα15 cells (NECA-stimulated, HTRF)
Type: cell-based
condition-parameters: CHO-K1; compound at 100 nM; relative to ZM241385 at 1 μM; mean ± SEM; read-out: hA2B AR (%) inhibition of cAMP, 100 nM
recorded-metric: inhibition at 0.1 µM (%)
Provide only the numeric value, understood in %.

Recorded results for 2 molecules are shown here.
Asked: Supply inhibition at 0.1 µM value. Item: COc1cccc(Cn2cc(-c3cc(-c4cccc(C#N)c4C)nc(N)n3)nn2)c1
Given back: 69.4

Asked: Supply inhibition at 0.1 µM value. Item: Cc1c(C#N)cccc1-c1cc(-c2cn(Cc3cccc(C(=O)OC(C)C)n3)nn2)nc(N)n1
Given back: 82.5

Then there is this molecule:
Asked: Supply inhibition at 0.1 µM value. Item: COc1ccc(Cn2cc(-c3cc(-c4cccc(C#N)c4C)nc(N)n3)nn2)cc1
Given back: 63.5
